Data origin: patent US20190031754A1

molecular target: T1, anti-human Fc (Jackson ImmunoResearch, 109-006-008); test: ELISA, IgG titrated on coated anti-human Fc; fit printed as IC50
T1 construct: Coated on a control plate to capture the chimeric IgG1 antibodies through their human Fc; also called IgG
REPORTED_PROPERTY: IC50
Write the figure, then the unit, nothing else.

Find the recorded IC50 belonging to ERR2-302 (mAb004) (antibody, human IgG1, V domains shown, Full-length chimeric rabbit/human IgG1, human IgH-gamma1 and IgL-lambda constant regions; C-terminal tags HC: LPETG-Strep, LC: G5SLPETG-Strep) VH: QKQLVESGGGLVKPGGSLTLTCTVSGFSLSSYAIGWVRQAPGNGLEWIGIINSYGSTYYASWAKSRSTITRNTNLNTVTLKMTSLTAADTATYFCARSPYGYVSAWGYHRLDLWGQGTLVTISS VL: SYELTQLPSVSVSLGQTARITCGGASIGSKVVHWYQQKPGLAPGLLIYDDDERPSGVPDRFSGSNSGDTATLTISGAQAGDEAEYYCQLWDGSDVVFGGGTQLTVTG and report it. 0.0134 µg/mL

Another binder to check: ERR2-Top35 (mAb130) (antibody, V domains shown) VH: QSVKESEGGLFKPMDTLTLTCTVSGFSLNTYGVSWVRQAPGNGLEWIGAVGSSGATNYASWAKSRSTITRNTNENTVTLKMTSLTAADTATYFCARDGYYSSGWGPYFSIWGPGTLVTVSS VL: SFVLTQPASVQVNLGQTVSLTCTAETLRSSYASWYQQKPGQAPVLLIYRDTSRPSGVPDRFSGSSSGNTATLTISGAQAGDEADYYCATSDGSGSRYYVFGGGTQLTVTG 0.0143 µg/mL

Another binder to check: XBR2-327 (mAb007) (antibody, human IgG1, V domains shown, Full-length chimeric rabbit/human IgG1, human IgH-gamma1 and IgL-kappa constant regions; C-terminal tags HC: LPETG-Strep, LC: G5SLPETG-Strep) VH: QEQLKESGGGLFKPTDTLTLTCTVSGFSLSSGAISWVRQAPGNGLEYIGFVNSLGNTYYANWAKSRSAITRNTNENTVTLKMTSLAAADTATYFCAKDYGNWAFDPWGPGTLVTVSS VL: DPVLTQTPSSVSAAVGGTVAINCQASQSISSYLSWYQQKPGQPPKLLIYGASKLASGVPSRFSGSGSGTEYTLTISGVQREDAATYYCLGGYASASYRTAFGGGTKLEIK 0.0102 µg/mL
